yeast fitness values, listed per item
B1: tRNA (parent)
chain: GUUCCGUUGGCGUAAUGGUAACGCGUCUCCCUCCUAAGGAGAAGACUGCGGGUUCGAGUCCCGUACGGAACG

variants of: B1; test: yeast fitness relative to wild type (ratio to wild type); higher = fitter; tRNA-Arg(CCU), competitive growth, 37 C, YPD
Fewer inactive variants are shown than the library holds.
Just the number, please, no unit attached.

C46G C62G A69G :: 0.733
G17C G41A G56C :: 0.619
U2G U3A :: 0.736

Moving on to the next variant.
yeast fitness for G10C A69G is 0.51
